The measurements presented in this section are drawn from paper PMC9482650.

assayTarget: NOS1, P29475
Sequence (P29475 9-101): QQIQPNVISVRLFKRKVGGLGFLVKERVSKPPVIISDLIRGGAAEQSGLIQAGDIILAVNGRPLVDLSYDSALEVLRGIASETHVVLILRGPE
testDetails: holdup assay
Set-up: key: below the threshold = too weak to quantify, mostly under pKd 3.1 to 4
conditionDetails: plain residues with an end cap or a label only (N-terminal biotin on a linker: ado-ado)
pKd values, listed per item
outcomeMeasure: pKd

| binder | recordedNumber |
| --- | --- |
| QGLAERISVL [PRKD2, Q9BZL6] | 3.88 |
| YYKRPVQEWV [MMP24, Q9Y5R2] | 4.39 |
